# testedOn: alpha2A receptor (Homo sapiens, UniProt P08913)
# Sequence (P08913 whole entry): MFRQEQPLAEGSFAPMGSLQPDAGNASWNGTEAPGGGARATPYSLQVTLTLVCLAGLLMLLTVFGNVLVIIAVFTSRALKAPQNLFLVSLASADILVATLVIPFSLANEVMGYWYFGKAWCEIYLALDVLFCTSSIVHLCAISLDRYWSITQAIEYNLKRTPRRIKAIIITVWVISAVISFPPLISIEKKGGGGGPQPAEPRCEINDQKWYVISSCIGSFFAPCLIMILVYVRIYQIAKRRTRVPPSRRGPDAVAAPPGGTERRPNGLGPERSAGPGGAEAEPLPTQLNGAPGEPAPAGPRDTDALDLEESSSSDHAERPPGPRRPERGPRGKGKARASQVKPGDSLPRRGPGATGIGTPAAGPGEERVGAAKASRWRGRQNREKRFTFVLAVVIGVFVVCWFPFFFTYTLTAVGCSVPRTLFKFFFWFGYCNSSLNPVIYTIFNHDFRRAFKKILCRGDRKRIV
# procedureText: RSAT assay, alpha 2A
# Type: cell-based
# measurementContext: RSAT, NIH-3T3 cells; NA = not active; read-out: EC50 (nM) Alpha 2A
readoutKind: EC50 (nM)
Could you give me the number in nM? Just the number is fine.

Past entries and their recorded results:
[
  {
    "chemicalString": "COc1c(Br)cccc1CNC1=NCCS1",
    "EC50, nM": 621
  },
  {
    "chemicalString": "Cc1cccc(CNC2=NCCS2)c1Cl",
    "EC50, nM": 281
  },
  {
    "chemicalString": "Fc1c(I)cccc1CNC1=NCCS1",
    "EC50, nM": 589
  },
  {
    "chemicalString": "Clc1ccc(Br)c(CNC2=NCCS2)c1",
    "EC50, nM": 2270
  }
]

Lookup: Provide only the value of recorded EC50 for COc1ccc(Cl)cc1CNC1=NCCS1
Found: 2250
